Measured values drawn from a collection of fitness landscapes (doi:10.1016/j.celrep.2020.107928) for this set.

B1: Caulobacter ParB omega fusion; a variant is named by its letters at X, in order, B8GW30 (parent)
chain: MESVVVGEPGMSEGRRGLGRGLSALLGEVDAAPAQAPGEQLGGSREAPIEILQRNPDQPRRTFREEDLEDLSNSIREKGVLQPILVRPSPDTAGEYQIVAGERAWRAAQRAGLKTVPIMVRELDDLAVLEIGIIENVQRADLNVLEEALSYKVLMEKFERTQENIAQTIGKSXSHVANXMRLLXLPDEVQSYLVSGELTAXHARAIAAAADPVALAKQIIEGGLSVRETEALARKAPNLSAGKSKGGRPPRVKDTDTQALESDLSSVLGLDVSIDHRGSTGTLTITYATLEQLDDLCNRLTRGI

- Variants of: B1
- procedureText: one-hybrid fitness for binding parS DNA (scaled: cognate 1, non-cognate 0); higher = stronger binding
- conditionSummary: with parS DNA site
Whole data set: some 81,000 sequences, median “one-hybrid fitness for binding parS DNA” near -0.17, cut for the highest 2% near 0.51. Many of the other results were omitted from the sample, so the highest values are more common in it than they were.
Known one-hybrid fitness for binding parS DNA of a selection of variants

Known results for variants:
variantString: PCLL
observedValue: ≤ 0.2
//
variantString: RRGA
observedValue: 0.749
//
variantString: RGTD
observedValue: ≤ 0.2

Qu. Would you mind telling me what one-hybrid fitness for binding parS DNA value was observed for RRQA ?
Ans. 0.699

Qu. Same question, HKDS this time
Ans. ≤ 0.2

Qu. # repeat for TQIL
Ans. ≤ 0.2

Qu. # repeat for VSHT
Ans. ≤ 0.2

Qu. Could you do the same for RFVT , please?
Ans. 0.614

Qu. And for RFVQ ?
Ans. ≤ 0.2

Qu. Can you check RGTT next?
Ans. 0.624

Qu. Also NRSA ?
Ans. ≤ 0.2
